IC50 by entry:
System: A2058 (BRAF mutation)
protocol_description: MTT cell viability assay, A2058 melanoma
Format: cell-based, human
assay_conditions: Homo sapiens, A2058, 24 h
Kindly provide the numeric value in µM only, without the unit symbol.

> print(dat)
                                   compound                    tgt  units.symbol  reported.result
1  C=C1C(=O)O[C@H]2CC3=C[C@@H](C/C(C)=C/[C@@H](OC(=O)Cc4cccc5ccccc45)[C@H]12)OC3=O  A2058 (BRAF mutation)            µM              3.1

Next compound, please.
Qu. Which IC50 reading was recorded for the compound C=C1C(=O)OC2CC3=C[C@@H](C/C(C)=C/C(OC(=O)c4ccc(C)cc4)[C@H]12)OC3=O (some centres unmarked) ?
Ans. 4.2
